Molecular target: NAD(P)H dehydrogenase [quinone] 1 (Mus musculus)
Test: Induction of quinone reductase 1 activity in mouse Hepa-1c1c7 cells assessed as cell survival at 50 uM by MTT assay relative to control
Type: cell-based
Recorded Survival split into classes lo = under 80%, med = from 80% up to 90%, hi = 90% and over

Reference set, count: 6
{"columns": ["Smiles Structure", "Measured On", "Category"],
 "data": [
  ["COC(=O)[C@@H]1Cc2c([nH]c3ccccc23)CN1Cc1ccccc1", "NAD(P)H dehydrogenase [quinone] 1 (Mus musculus)", "hi"],
  ["COC(=O)[C@H]1Cc2c([nH]c3ccccc23)CN1S(=O)(=O)c1ccc(C)cc1", "NAD(P)H dehydrogenase [quinone] 1 (Mus musculus)", "med"],
  ["COC(=O)[C@H]1Cc2c([nH]c3ccccc23)CN1C(=O)NC12CC3CC(CC(C3)C1)C2", "NAD(P)H dehydrogenase [quinone] 1 (Mus musculus)", "lo"],
  ["C=CCOC(=O)N1Cc2[nH]c3ccccc3c2C[C@@H]1C(=O)OC", "NAD(P)H dehydrogenase [quinone] 1 (Mus musculus)", "lo"],
  ["COC(=O)[C@H]1Cc2c([nH]c3ccccc23)CN1Cc1ccccc1", "NAD(P)H dehydrogenase [quinone] 1 (Mus musculus)", "hi"],
  ["COC(=O)[C@@H]1Cc2c([nH]c3ccccc23)CN1C(=O)NCCc1ccccc1", "NAD(P)H dehydrogenase [quinone] 1 (Mus musculus)", "lo"]
]}

QUERY: Quick check: band for `COC(=O)[C@H]1Cc2c([nH]c3ccccc23)CN1S(=O)(=O)c1ccc(Br)cc1`
RESULT: med

QUERY: Quick check: band for `COC(=O)[C@H]1Cc2c([nH]c3ccccc23)CN1C(=O)NC1CCCCC1`
RESULT: lo

QUERY: Quick check: band for `COC(=O)[C@H]1Cc2c([nH]c3ccccc23)CN1Cc1ccc(OCc2ccccc2)cc1`
RESULT: med

QUERY: Quick check: band for `COC(=O)[C@H]1Cc2c([nH]c3ccccc23)CN1`
RESULT: hi

QUERY: Quick check: band for `O=C(O)[C@H]1Cc2c([nH]c3ccccc23)CN1Cc1ccccc1`
RESULT: hi

QUERY: Quick check: band for `C#CCN1Cc2[nH]c3ccccc3c2C[C@@H]1C(=O)OC`
RESULT: lo
